assay.name: xn = mol fraction of the nth substance listed
conditions.used: 323.15 K; 101 kPa; x1 = 0.3
test.readout: viscosity (mPa·s)

[1] [Na+].[OH-] + O
[2] CCOC(=O)[C@@H](O)[C@H](O)C(=O)OCC + CC(C)CCO
IN: I'd appreciate it if you could identify which of 1 and 2 has the greater viscosity. Kindly state the label of the option you pick.
OUT: 1

====

assay.name: xn = mol fraction of the nth substance listed
conditions.used: 318.15 K; 101 kPa; x1 = 0.2
test.readout: viscosity (mPa·s)

// worked examples, viscosity included
IN: What does the record list as viscosity for CCOC(=O)[C@@H](O)[C@H](O)C(=O)OCC + CC(C)CCO ?
OUT: 3.02

IN: What does the record list as viscosity for CCOC(=O)[C@@H](O)[C@H](O)C(=O)OCC + CCCCCCO ?
OUT: 3.369

IN: What does the record list as viscosity for CCOC(=O)[C@@H](O)[C@H](O)C(=O)OCC + CC(C)CO ?
OUT: 2.956

[P] CCOC(=O)[C@@H](O)[C@H](O)C(=O)OCC + CCCO
[Q] CC(C)O + O
IN: I'm curious whether P or Q has the smaller viscosity number. Which is it? Kindly state the label of the option you pick.
OUT: Q
